Tested on: Staphylococcus aureus
Assay: Antibacterial activity against quinolone-resistant Staphylococcus aureus CCARM 3505 assessed as bacterial growth inhibition measured during 24 hrs incubation at 37 degC by two-fold serial dilution technique
Assay type: functional
Conditions: CCARM 3505, 24 h
Mark each entry met if its MIC sits below 4 µg/mL, and not met for all others.

compound	assigned label
Cc1nn(-c2ccccc2)c(Oc2cccc(Cl)c2)c1/C=C1\SC(=S)N([C@H](C(=O)O)C(C)C)C1=O	not met
Cc1onc(-c2ccccc2)c1C(=O)N[C@@H]1C(=O)N2[C@@H]1SC(C)(C)[C@@H]2C(=O)O	met
CCC(C)[C@@H](C(=O)O)N1C(=O)/C(=C/c2c(C)nn(-c3ccccc3)c2Cl)SC1=S (some centres not stated)	not met
COc1ccc(Oc2c(/C=C3\SC(=S)N([C@H](C(=O)O)C(C)C)C3=O)c(C)nn2-c2ccccc2)cc1	not met
COc1ccccc1Oc1c(/C=C2\SC(=S)N(CC(=O)O)C2=O)c(C)nn1-c1ccccc1	not met
COc1ccc(Oc2c(/C=C3\SC(=S)N(CC(=O)O)C3=O)c(C)nn2-c2ccccc2)cc1	not met
Cc1ccc(Oc2c(/C=C3\SC(=S)N(CC(=O)O)C3=O)c(C)nn2-c2ccccc2)cc1	not met
Cc1nn(-c2ccccc2)c(Oc2ccccc2)c1/C=C1\SC(=S)N([C@H](C(=O)O)C(C)C)C1=O	not met
CCC(C)[C@@H](C(=O)O)N1C(=O)/C(=C/c2c(C)nn(-c3ccccc3)c2Oc2ccccc2OC)SC1=S (some centres not stated)	not met
CCC(C)[C@@H](C(=O)O)N1C(=O)/C(=C/c2c(C)nn(-c3ccccc3)c2Oc2ccc(C)cc2C)SC1=S (some centres not stated)	met
Cc1nn(-c2ccccc2)c(Oc2ccc(Cl)cc2)c1/C=C1\SC(=S)N(CC(=O)O)C1=O	not met
Cc1nn(-c2ccccc2)c(Oc2c(Cl)cccc2Cl)c1/C=C1\SC(=S)N([C@H](C(=O)O)C(C)C)C1=O	not met
Cc1nn(-c2ccccc2)c(Oc2ccc3ccccc3c2)c1/C=C1\SC(=S)N(CC(=O)O)C1=O	not met
